Origin of measurements: ChEMBL document CHEMBL3507680

TEST_DETAILS: Human HepG2 cell viability assay in 384 well format
Assay type: toxicity, cell-based
Set-up: dose 125 nL, time 70.5 hour; concentration not given beside the values
CONDITION_DESCRIPTION: HepG2 cells, read-out: Inhibition
# reported cytotoxicity at 70.5 h; entries follow
// note: answer is a bare numeric in %

Solved entries:
COc1cccc(F)c1CN1CCC(c2nc(C)cc(C)n2)C1 (configuration not stated)	14.3
CCN(Cc1nnsc1Cl)C(C)c1ccc(C#N)cc1 (configuration not stated)	-3.23
O=C(CC1CC1)N1CCC2(COCc3cnc(-c4cccnc4)nc32)C1 (configuration not stated)	-2.06
Cc1cc(S(=O)(=O)Nc2onc(C)c2C)sc1C	-5.02
CS(=O)(=O)N1CCC(Nc2ccc(C#N)c(C(F)(F)F)c2)CC1	8.33

Attention now turns to another entry.
Ask | GET /values?readout=cytotoxicity at 70.5 h&item= `CC(C)(C)C(=O)NS(=O)(=O)c1ccc(C#N)cc1C(F)(F)F`
Reply | -14.8

====

# reported cytotoxicity at 70.5 h; entries follow
TEST_DETAILS: Human HepG2 cell viability assay in 384 well format
Format: toxicity, cell-based
Parameters: dose 125 nL, time 70.5 hour; concentration not given beside the values
CONDITION_DESCRIPTION: HepG2 cells, read-out: Inhibition
// note: answer is a bare numeric in %

Solved entries:
CCCC(CNc1cc(C(C)C)nc2ccnn12)N(C)C (stereo not drawn)	39.1
Cc1ncsc1C(=O)NCCOc1ncc(Cl)cc1Cl	1.13

Attention now turns to another entry.
Ask | GET /values?readout=cytotoxicity at 70.5 h&item= O=S(=O)(NCC1COc2ccccc2C1)N1CCCCCC1 (stereo not drawn)
Reply | -7.48

====

TEST_DETAILS: Human HepG2 cell viability assay in 384 well format
Type: toxicity, cell-based
Set-up: dose 125 nL, time 70.5 hour; concentration not given beside the values
CONDITION_DESCRIPTION: HepG2 cells, read-out: Inhibition
RECORDED_ENDPOINT: cytotoxicity at 70.5 h (%)
// note: answer is a bare numeric in %

Solved entries:
COC(=O)C(NC(=O)CCOC(C)C)c1cc(F)ccc1F (stereo unspecified)	18.1
CC(C)N1[C@H](Cn2cncn2)C[C@@H]2CN(Cc3cccs3)CC[C@@H]21	-0.112
O=C(O)c1ccc(C2CCCN(Cc3ccc(-c4cc[nH]n4)o3)C2)cc1 (stereo unspecified)	16.9
Cc1cc(N2CCC(N(C)Cc3cccnc3)C2=O)n(C)n1 (stereo unspecified)	13.5
COC(=O)c1cccc(C(=O)N(C)Cc2ccsc2)c1	22.5
O=S(=O)(NC1CCC12CCN(CC1CCOCC1)CC2)c1ccccc1 (stereo unspecified)	-2.17
CCN1CCC(CNCc2cc(C)ccc2OC)C1 (stereo unspecified)	-8.51
COc1ccccc1CC(=O)NC1CCCc2cn[nH]c21 (stereo unspecified)	-0.577

Ask | GET /values?readout=cytotoxicity at 70.5 h&item= `O=C1O[C@@H]2CN(Cc3cc4ccccc4o3)C[C@@H]2N1Cc1ccccn1`
Reply | -4.9

Ask | Okay, and `CC(C)(O)c1cc(CC2(NCc3ccco3)COC2)no1` ?
Reply | -7.88

Ask | Okay, and `CCn1cc(CN2C[C@@H]3CCCN3C[C@H]2CCSC)cn1` ?
Reply | -7.68

Ask | Okay, and CN(C)CCOCC1CN(C(=O)[C@H]2CCCO2)Cc2ccnn2C1 (stereo partly specified) ?
Reply | -1.09

Ask | Okay, and `Cc1cc(NC(=O)CN2CCn3c(nnc3-c3ccccc3)C2)no1` ?
Reply | -1.17

Ask | Okay, and NCC(c1cccnc1)N1CCOCC1 (stereo unspecified) ?
Reply | -4.26

Ask | Okay, and `CNC(=O)N1C[C@H]2C[C@H](C(=O)Nc3ccccc3)[C@@H](C1)O2` ?
Reply | -7.41

Ask | Okay, and `CC(C)Cc1cc(C(=O)N2CC(OCc3ccccc3F)C2)n(C)n1` ?
Reply | -2.8

Ask | Okay, and CCCc1noc(C2CC(=O)N(CCN(C)C)C2)n1 (stereo unspecified) ?
Reply | -18.6

Ask | Okay, and `CCc1noc(CN(C)CCC(=O)Nc2ccc(C#N)c(Cl)c2)n1` ?
Reply | 0.733

Ask | Okay, and CC(=O)Nc1nc(C(=O)N2CCCC2c2noc(C)n2)cs1 (stereo unspecified) ?
Reply | 6.71

Ask | Okay, and `CC(C)N(CCS(C)(=O)=O)Cc1csc(Cc2ccc(Cl)cc2)n1` ?
Reply | 3.51

Ask | Okay, and CNC(=O)C1CN(C(=O)c2cccs2)CCN(S(C)(=O)=O)C1 (stereo unspecified) ?
Reply | -2.89

Ask | Okay, and `COCCN1C[C@H]2[C@@H](C1)N(C(=O)c1cccc(OC)c1)CC[C@H]2OC` ?
Reply | -2.65

Ask | Okay, and `CC(=O)N1CCN(C(=O)NCc2csc(Br)c2)CC1` ?
Reply | -9.87

Ask | Okay, and `NC(=O)[C@@H]1CCCN1C(=O)c1cn(C/C=C/c2ccccc2)nn1` ?
Reply | -14

====

# reported cytotoxicity at 70.5 h; entries follow
TEST_DETAILS: Human HepG2 cell viability assay in 384 well format
Assay type: toxicity, cell-based
Set-up: dose 125 nL, time 70.5 hour; concentration not given beside the values
CONDITION_DESCRIPTION: HepG2 cells, read-out: Inhibition
// note: answer is a bare numeric in %

Solved entries:
CC(=O)N1Cc2ccccc2OC2(CCN(C(=O)C3CC3)CC2)C1	25.4
COC(=O)CCN1CCC(NC(=O)OC(C)(C)C)CC1	1.05
Cc1cc(C2CCCN(CCS(=O)(=O)c3ccccc3)C2)n[nH]1 (centres undefined)	-8.26
O=c1n(CC2CC2)nc(C2CCNCC2)n1Cc1ccccc1	9.69
Cn1c(-c2ccc(F)cc2)cn2cc(C(=O)N3CCC(N)C3)nc2c1=O (centres undefined)	-9.46
CCC(=O)N1CCCC1C(=O)N1CCC(Cc2ccc(F)cc2)CC1 (centres undefined)	-9.21
COc1ccc2c(c1)OCC(C(=O)NCc1nc3c(s1)CCCC3)C2 (centres undefined)	-8.87
CN(C)C(=O)c1cc(-c2ccccc2)[nH]n1	-6.41
Cc1cc(C)cc(NC(=O)N(CCC#N)CCCN(C)C)c1	-5.53
CC(C)(C)c1cc(=O)n2c(n1)SCC(C(=O)NCc1ccccn1)C2 (centres undefined)	-5.78

Ask | GET /values?readout=cytotoxicity at 70.5 h&item= `COc1nn(C)c2c1CCCN(C(=O)c1cccc3cccnc13)C2`
Reply | -4.18

Ask | Okay, and `COC(=O)[C@H]1CN(C(=O)NC(C)C)CCN1C(=O)c1cccs1` ?
Reply | -5.45

Ask | Okay, and `COCCN1C[C@H]2CC[C@@H]1CN(Cc1cc(=O)c3cc(C)ccc3[nH]1)C2` ?
Reply | -7.09

Ask | Okay, and Cc1nnc(CN(Cc2cccc3c2OCO3)CC2CCCO2)n1C (centres undefined) ?
Reply | -19.6

Ask | Okay, and `CC(C)c1nnc2n1CCN(Cc1cc(Cl)c3c(c1)OCCO3)C2` ?
Reply | -4.04

Ask | Okay, and `Cn1nc(CNc2ncccn2)c2c1CN(c1cnccn1)CC2` ?
Reply | -8.13

Ask | Okay, and CC(C)(C)c1csc(C2CCCCN2C(=O)CCn2cncn2)n1 (centres undefined) ?
Reply | -5.87

Ask | Okay, and CC1COCCN1Cc1nc(C(C)(C)C)no1 (centres undefined) ?
Reply | -6.43

Ask | Okay, and `CCn1cc(N2Cc3nc(N4CCOCC4)ncc3C2=O)cn1` ?
Reply | 2.67

Ask | Okay, and `CN(C)C(=O)N1C[C@@H]2CCCO[C@@H]2[C@H](N(C)Cc2ccco2)C1` ?
Reply | -11.5

====

TEST_DETAILS: Human HepG2 cell viability assay in 384 well format
Type: toxicity, cell-based
Design: dose 125 nL, time 70.5 hour; concentration not given beside the values
CONDITION_DESCRIPTION: HepG2 cells, read-out: Inhibition
# reported cytotoxicity at 70.5 h; entries follow
// note: answer is a bare numeric in %

Solved entries:
CCN1CCC(N[C@@H]2CC[C@@H]2NC(=O)Cc2csc(C)n2)CC1	-1.08
O=C([C@H]1CCCO1)N1CCC2(CCCN(CCOc3ccccc3)C2)C1 (some centres not stated)	20.8
Cc1nc(C2(NCc3ccc(C#N)cc3F)CCCCC2)no1	-1.37
CCS(=O)(=O)N1CCC2(CC(=O)N(c3cccc(C)c3)C2)C1 (configuration not stated)	-4.67
O=C(c1ccoc1)N1CCCn2nnc(COCC3CC3)c2C1	-4.24

Ask | GET /values?readout=cytotoxicity at 70.5 h&item= `CN1C(=O)CO[C@H]2CN(C(=O)Nc3ccc(F)cc3)C[C@H]21`
Reply | -7.97

Ask | Okay, and Cc1nc(O)cc(C2CCCN(Cc3c(Cl)cncc3Cl)C2)n1 (configuration not stated) ?
Reply | -8.65

Ask | Okay, and `CCn1nccc1CN(C)c1[nH]cnc2nc(C)nc1-2` ?
Reply | -5.53

Ask | Okay, and `Cc1cc(C)n(-c2ccc(CNCc3ccc(F)c(F)c3)cn2)n1` ?
Reply | 2.51

Ask | Okay, and `COc1cccc([C@@H]2CN(C3CCCC3)C[C@H]2C(=O)O)c1` ?
Reply | -2.63

Ask | Okay, and `CN(Cc1ccccc1)C1(C(=O)NC(C)(C)CO)Cc2ccccc2C1` ?
Reply | 2.66
